# TARGET ENTITY: Human C5 (Homo sapiens)
# Construct: purchased Complement Technology
# TEST: Surface plasmon resonance (SPR), immobilized human C5 (Example 9, Table 18)
# Format: binding
# MEASUREMENT PARAMETERS: immobilized human C5, equilibrium dissociation constant; read-out: SPR C5 EQ KD
pKd: −log10 of the molar value.
REPORTED ENDPOINT: pKd

# example entries with known answers
1) COc1ccc(F)cc1CNC(=O)Nc1ccc(OC)c(OCCCC(C)C)c1    6.11
2) COc1ccc(NC(=O)N2CCCC2c2ccc(N(C)C)cc2)cc1OCCCC(C)C (stereo not shown)    5.85
3) COc1ccc(NC(=O)NCc2cccc3nc[nH]c23)cc1OCCCC(C)C    6.72
4) COc1ccc(NC(=O)NCc2ccnc3c2ccn3CCN2CCCC2)cc1OCCCC(C)C    7.33
5) COc1ccc(NC(=O)NCc2cccc3c2ncn3CCN(C)C)cc1OCCCC(C)C    7.49
6) COc1ccc(NC(=O)NC(CO)c2cc(N)ccc2OC)cc1OCCCC(C)C (stereo not shown)    7.00

A: COc1ccc(NC(=O)NCc2ccc(O)cc2O)cc1OCCCC(C)C
B: COc1cc(F)ccc1CNC(=O)Nc1ccc(OC)c(OCCCC(C)C)c1
Ask: Which has the higher pKd, A or B ? Answer by quoting the chosen item's label.
Result: A
(A: 7.70, B: 6.26)

P: COc1ccc(NC(=O)NCc2ccnc3c2ccn3CC(=O)N2CCN(C)CC2)cc1OCCCC(C)C
Q: COc1ccc(NC(=O)NCc2cccc(OCCN(C)C)c2)cc1OCCCC(C)C
R: COc1ccc(NCCCN(C)C)cc1CNC(=O)Nc1ccc(OC)c(OCCCC(C)C)c1
S: COc1ccc(NC(=O)N[C@@H](CO)c2ccccc2)cc1NCCCC(C)C
Ask: Endpoint returns the given molecules ordered by ascending pKd. A complete answer lists every label in the requested sequence.
Result: R, S, Q, P
(R: 6.59, S: 6.79, Q: 7.02, P: 7.57)

1: CNc1cccc(CNC(=O)Nc2ccc(OC)c(OCCCC(C)C)c2)c1
2: COc1ccc(NC(=O)NC(C(=O)O)c2cccc(OC)c2O)cc1OCCCC(C)C (stereo not shown)
Ask: Which has the higher pKd, 1 or 2 ? Answer by quoting the chosen item's label.
Result: 2
(2: 6.48, 1: 5.85)

P: COc1ccc(NC(=O)NCc2ccc3c(ccn3CC(=O)N(C)C)c2)cc1OCCCC(C)C
Q: COc1ccc(NC(=O)NCc2ccc3c(ccn3CCN(C)C)c2)cc1OCCCC(C)C
R: COc1ccc(NC(=O)NC(CO)c2cccc(OC)c2O)cc1OCCCC(C)C (stereo not shown)
S: COc1ccc(NC(=O)NC(CO)c2cccnc2OC)cc1OCCCC(C)C (stereo not shown)
Ask: Endpoint returns the given molecules ordered by ascending pKd. A complete answer lists every label in the requested sequence.
Result: Q, P, S, R
(Q: 6.30, P: 6.69, S: 7.24, R: 7.60)

A: COc1ccc(NCCCN2CCOCC2)cc1CNC(=O)Nc1ccc(OC)c(OCCCC(C)C)c1
B: COc1ccc(NC(=O)NC(CO)c2cccc(CNCCN3CCOCC3)c2)cc1OCCCC(C)C (stereo not shown)
Ask: Which has the higher pKd, A or B ? Answer by quoting the chosen item's label.
Result: A

P: COc1ccc(NC(=O)NCc2ccnc3c2ccn3CCCN2CCCC2)cc1OCCCC(C)C
Q: COc1ccc(NC(=O)NCc2ccnc(NCCN3CCOCC3)c2OC)cc1OCCCC(C)C
R: COc1cc(CN(C)C(C)=O)c(NC(=O)NCc2ccnc3[nH]ccc23)cc1OCCCC(C)C
Ask: Endpoint returns the given molecules ordered by ascending pKd. A complete answer lists every label in the requested sequence.
Result: R, P, Q
(R: 6.19, P: 6.56, Q: 7.23)

1: COc1ccc(NC(=O)NCc2cccc(CO)c2)cc1OCCCC(C)C
2: COc1ccc(NC(=O)NC(CO)c2cc(F)ccc2O)cc1OCCCC(C)C (stereo not shown)
Ask: I'm curious, which of these has a smaller pKd number: 1 or 2 ? Answer by quoting the chosen item's label.
Result: 1

a: COc1ccc(NC(=O)NCc2ccc(OCCN(C)C)cc2)cc1OCCCC(C)C
b: COc1ccc(NC(=O)NCc2ccnc(OCCN(C)C)c2)cc1OCCCC(C)C
Ask: Which has the higher pKd, a or b ? Answer by quoting the chosen item's label.
Result: b

----------
Parameter: IC50. Scope: all listed entries.
# TARGET ENTITY: purified human C5 (Homo sapiens)
# Sequence (P01031 19-1676): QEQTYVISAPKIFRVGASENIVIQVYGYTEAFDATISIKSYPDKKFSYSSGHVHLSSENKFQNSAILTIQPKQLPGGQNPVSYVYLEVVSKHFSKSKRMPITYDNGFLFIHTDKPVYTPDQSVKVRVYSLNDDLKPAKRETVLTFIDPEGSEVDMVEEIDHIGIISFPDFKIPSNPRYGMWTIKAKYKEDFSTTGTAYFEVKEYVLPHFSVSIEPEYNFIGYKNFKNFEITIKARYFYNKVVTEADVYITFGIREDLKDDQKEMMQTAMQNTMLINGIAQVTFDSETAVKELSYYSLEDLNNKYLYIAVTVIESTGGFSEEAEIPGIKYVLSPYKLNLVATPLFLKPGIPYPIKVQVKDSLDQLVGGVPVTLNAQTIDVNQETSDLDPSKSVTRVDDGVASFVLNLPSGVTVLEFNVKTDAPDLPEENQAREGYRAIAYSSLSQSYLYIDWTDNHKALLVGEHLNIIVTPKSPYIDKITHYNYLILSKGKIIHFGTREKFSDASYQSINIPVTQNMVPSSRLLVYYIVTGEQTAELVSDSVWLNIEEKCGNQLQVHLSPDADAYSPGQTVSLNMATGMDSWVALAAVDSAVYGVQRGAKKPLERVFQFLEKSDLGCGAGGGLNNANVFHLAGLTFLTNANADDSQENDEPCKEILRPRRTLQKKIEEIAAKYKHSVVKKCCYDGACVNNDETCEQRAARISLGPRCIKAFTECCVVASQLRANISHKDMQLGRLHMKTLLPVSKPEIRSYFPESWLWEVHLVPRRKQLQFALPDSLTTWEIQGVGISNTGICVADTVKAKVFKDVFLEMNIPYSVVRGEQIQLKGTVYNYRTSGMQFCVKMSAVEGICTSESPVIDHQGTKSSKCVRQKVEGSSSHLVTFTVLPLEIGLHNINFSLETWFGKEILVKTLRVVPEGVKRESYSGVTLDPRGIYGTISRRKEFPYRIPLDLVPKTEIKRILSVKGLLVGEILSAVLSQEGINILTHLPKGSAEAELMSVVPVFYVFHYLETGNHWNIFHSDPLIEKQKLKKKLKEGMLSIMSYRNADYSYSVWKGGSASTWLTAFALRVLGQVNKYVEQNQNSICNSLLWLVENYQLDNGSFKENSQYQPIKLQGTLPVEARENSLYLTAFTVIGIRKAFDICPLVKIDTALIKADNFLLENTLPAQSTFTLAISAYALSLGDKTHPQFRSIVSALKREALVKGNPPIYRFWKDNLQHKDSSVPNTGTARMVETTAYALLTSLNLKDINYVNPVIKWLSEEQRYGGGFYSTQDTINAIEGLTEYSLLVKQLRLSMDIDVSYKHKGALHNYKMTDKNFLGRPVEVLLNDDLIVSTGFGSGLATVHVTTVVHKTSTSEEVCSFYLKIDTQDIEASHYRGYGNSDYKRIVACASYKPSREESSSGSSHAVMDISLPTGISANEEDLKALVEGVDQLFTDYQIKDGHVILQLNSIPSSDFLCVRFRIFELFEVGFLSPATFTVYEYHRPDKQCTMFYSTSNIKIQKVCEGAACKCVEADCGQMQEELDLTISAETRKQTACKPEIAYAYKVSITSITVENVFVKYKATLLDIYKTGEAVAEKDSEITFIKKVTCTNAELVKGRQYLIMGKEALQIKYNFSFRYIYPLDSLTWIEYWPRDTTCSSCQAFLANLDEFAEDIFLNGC
# TEST: Red blood cell (RBC) hemolysis assay, optical, absorbance 412 nm (Example 10, Table 19)
# Assay type: cell-based
# MEASUREMENT PARAMETERS: antibody-sensitized sheep erythrocytes, […] human C5 depleted sera, 0.5 nM purified human C5, absorbance 412 nm; read-out: RBC Hemolysis IC50
Provide only the numeric value, understood in nM.

# example entries with known answers
1) COc1ccc(NC(=O)NCc2cccc(OCCN(C)C)c2)cc1OCCCC(C)C    113
2) COc1ccc(NC(=O)NCc2cccc3c2ccn3CCCN(C)C)cc1OCCCC(C)C    65
3) COc1ccc(NC(=O)NCc2ccnc3c2ccn3CC(=O)N(C)C)cc1OCCCC(C)C    62.1
4) COc1ccc(NC(=O)NCc2ccnc3c2ccn3CC(=O)N2CCCCC2)cc1OCCCC(C)C    185
5) COCCOc1cc(CNC(=O)Nc2ccc(OC)c(OCCCC(C)C)c2)ccn1    1040
6) COc1ccc(NC(=O)NC(CO)c2cccc3[nH]ncc23)cc1OCCCC(C)C (stereo not shown)    762

Recorded result, COc1ccc(NC(=O)NCc2ccc(N3CCN(C)CC3)cc2)cc1OCCCC(C)C , IC50: 403

Recorded result, COc1ccc(NC(=O)NC(CO)c2cccc(CNCCN3CCOCC3)c2)cc1OCCCC(C)C (stereo not shown) , IC50: 3630

Recorded result, COc1ccc(NC(=O)NCc2cccc3nc[nH]c23)cc1OCCCC(C)C , IC50: 319

Recorded result, COc1ccc(NC(=O)NC(CO)c2cccnc2OC)cc1OCCCC(C)C (stereo not shown) , IC50: 60

Recorded result, COCCOc1ccccc1CNC(=O)Nc1ccc(OC)c(OCCCC(C)C)c1 , IC50: 2090

Recorded result, COc1ccc(NC(=O)CN2CCOCC2)cc1CNC(=O)Nc1ccc(OC)c(OCCCC(C)C)c1 , IC50: 671

Recorded result, COc1ccc(NC(=O)NCc2ccnc(OCCN)c2)cc1OCCCC(C)C , IC50: 312

Recorded result, COc1ccc(NC(=O)NCc2ccc(N)nc2)cc1OCCCC(C)C , IC50: 3060

Recorded result, COc1cnccc1CNC(=O)Nc1ccc(OC)c(OCCCC(C)C)c1 , IC50: 136

Recorded result, COc1cc(CC(=O)N(C)C)c(NC(=O)N[C@@H](CO)c2ccccc2)cc1OCCCC(C)C , IC50: 3160

----------
# TEST: Permeability assay, unidirectional transport, Papp (Example 30, Table 34)
# Type: in vitro ADME, canine
# MEASUREMENT PARAMETERS: dog, pH 7.4; MDCK-WT cell monolayers, A-to-B, 3 μM test compound, 37° C., duplicate determinations
REPORTED ENDPOINT: Papp A→B at 3 μM (×10⁻⁶ cm/s)

1. CCCCCOc1cc(N2CC[C@H](C)N(Cc3ccnc4c3c(Cl)cn4CC(=O)N[C@H]3CCN(C)C3)C2=O)ccc1OC    0.7
2. CCCCCOc1cc(N2CCCN(Cc3ccnc4c3c(Cl)cn4CC(=O)N3CC[C@H](N(C)C)C3)C2=O)ccc1OC    3.9
3. CCCCCOc1cc(N2CCCN(Cc3ccnc4c3c(Cl)cn4CC(=O)N(C)C)C2=O)ncc1OC    25.2
4. CCCCCOc1cc(N2CCCN(Cc3ccc(CNC(C)=O)cc3OC)C2=O)ncc1OC    23.5
5. CCCCCOc1cc(N2CC[C@@H](C)N(Cc3cccc4c3c(Cl)cn4CC(=O)N(C)C)C2=O)ccc1OC    15.3
6. COc1ccc(N2CC[C@H](C)N(Cc3cccc4c3ccn4CC(=O)N3CCOCC3)C2=O)cc1OCCCC1CC1    14.3
7. CCCCCOc1cc(N2CCCN(Cc3ccnc4c3c(Cl)cn4CC(=O)N(C)C)C2=O)ccc1OC    26.1
8. CCCCCOc1cc(N2CC[C@H](C)N(Cc3ccnc4c3c(Cl)cn4CC(=O)N3CCOC3)C2=O)ccc1OC    17.9

A: COc1cc(CC(=O)N2CCO[C@@H](CN(C)C)C2)ccc1CN1C(=O)N(c2ccc(OC)c(OCCCC3CC3)c2)CC[C@@H]1C
B: COc1cc(CC(=O)N(C)C)ccc1CN1CCCN(c2ccc(OC)c(OCCCC3CC3)c2)C1=O
C: CCCCCOc1cc(N2CC[C@H](C)N(Cc3ccnc4c3c(Cl)cn4CC(=O)N3CCOC(CN(C)C)C3)C2=O)ccc1OC (stereo partly drawn)
Ask: Endpoint returns the given compounds ordered by ascending Papp A→B at 3 μM. A complete answer lists every label in the requested sequence.
Result: C, A, B

1: COc1cc(CC(=O)N2CCOCC2)ccc1CN1CCCN(c2ccc(OC)c(OCCCC(C)(F)F)c2)C1=O
2: CCCCCOc1cc(N2CC[C@H](C)N(Cc3cccc4c3ccn4CC(=O)N3CCO[C@@H](CN(C)C)C3)C2=O)ccc1OC
Ask: I'm curious, which of these has a smaller Papp A→B at 3 μM number: 1 or 2 ? Answer by quoting the chosen item's label.
Result: 2
(2: 2 ×10⁻⁶ cm/s, 1: 16.8 ×10⁻⁶ cm/s)

1: COc1cc(CC(=O)N2CCO[C@H](CN(C)C)C2)ccc1CN1C(=O)N(c2ccc(OC)c(OCCCC3CC3)c2)CC[C@@H]1C
2: COc1cc(CNC(C)=O)ccc1CN1CCCN(c2ccc(OC)c(OCCCC3CC3)c2)C1=O
3: CCCCCOc1cc(N2CC[C@H](C)N(Cc3ccnc4c3c(Cl)cn4CC(=O)N3CC(N4CCOCC4)C3)C2=O)ccc1OC
4: COc1cc(CC(=O)N[C@H]2CCNC2)ccc1CN1C(=O)N(c2ccc(OC)c(OCCCC3CC3)c2)CC[C@@H]1C
Ask: Ordering criterion: Papp A→B at 3 μM; begin with the maximum. A complete answer lists every label in the requested sequence.
Result: 2, 3, 1, 4
